test: 1,9-decadiene/aqueous buffer solution partition coefficient, log D of the compound in PBS at pH 7.4 by shake flask method; type: physicochemical
Where a SMILES comes first, the peptide text is derived from it. [ ]: non-standard residue; d: D form. NMeY = CN[C@@H](Cc1ccc(O)cc1)C(=O)O; dNMeF = CN[C@H](Cc1ccccc1)C(=O)O; dNMeA = CN[C@H](C)C(=O)O; Sar = CNCC(=O)O
Observable: logD hydrocarbon water
Answer with a bare number; do not write a unit.

Please report the recorded logD hydrocarbon water for `C/C=C/C[C@@H](C)[C@@H](O)[C@H]1C(=O)N[C@@H]([C@@H](C)O)C(=O)N(C)CC(=O)N(C)[C@@H](CC(C)C)C(=O)N[C@@H](C(C)C)C(=O)N(C)[C@@H](CC(C)C)C(=O)N[C@@H](C)C(=O)N[C@H](C)C(=O)N(C)[C@@H](CC(C)C)C(=O)N(C)[C@@H](CC(C)C)C(=O)N(C)[C@@H](C(C)C)C(=O)N1C` .
2.43

Look up logD hydrocarbon water for this compound: CC[C@H](C)[C@@H]1NC(=O)[C@H](Cc2ccc(O)cc2)N(C)C(=O)[C@H](C)NC(=O)CN(C)C(=O)[C@@H]2CCCN2C(=O)[C@@H](Cc2ccccc2)N(C)C(=O)[C@H](CC(C)C)NC1=O (cyclo(A[NMeY]IL[dNMeF]P[Sar]))
-1.78

Requested field: logD hydrocarbon water. Item: CC[C@H](C)[C@@H]1NC(=O)[C@H](Cc2ccc(O)cc2)N(C)C(=O)[C@H](Cc2ccccc2)NC(=O)CN(C)C(=O)[C@@H]2CCCN2C(=O)[C@@H](C)N(C)C(=O)[C@H](CC(C)C)NC1=O (cyclo(F[NMeY]IL[dNMeA]P[Sar]))
-1.71

Which logD hydrocarbon water reading was recorded for the compound CC[C@H](C)[C@@H]1NC(=O)[C@H](Cc2ccc(O)cc2)N(C)C(=O)[C@H](Cc2ccccc2)NC(=O)CN(C)C(=O)[C@@H]2CCCN2C(=O)[C@@H](Cc2ccccc2)N(C)C(=O)[C@H](C)NC1=O (cyclo(A[dNMeF]P[Sar]F[NMeY]I)) ?
-1.52

Query: logD hydrocarbon water; subject: `C/C=C/C[C@@H](C)[C@@H](O)[C@H]1C(=O)N[C@@H](C)C(=O)N(C)CC(=O)N(C)[C@@H](CC(C)C)C(=O)N[C@@H](C(C)C)C(=O)N(C)[C@@H](CC(C)C)C(=O)N[C@@H](C)C(=O)N[C@H](C)C(=O)N(C)[C@@H](CC(C)C)C(=O)N(C)[C@@H](CC(C)C)C(=O)N(C)[C@@H](C(C)C)C(=O)N1C`
3.18

What value of logD hydrocarbon water has been reported for the following compound? `CC[C@@H]1NC(=O)[C@H](CC(C)C)N(C)C(=O)[C@H](CC)N(C)C(=O)[C@H](CC(C)C)N(C)C(=O)[C@H](CC(C)C)N(C)C(=O)[C@@H](C)NC(=O)[C@H](C)NC(=O)[C@H](CC(C)C)N(C)C(=O)[C@H](C(C)C)NC(=O)[C@H](CC(C)C)N(C)C(=O)CN(C)C1=O`
3.64

Record request: logD hydrocarbon water value, item `CC[C@H]1OC(=O)[C@H](C)[C@@H](O[C@H]2C[C@@](C)(OC)[C@@H](O)[C@H](C)O2)[C@H](C)[C@@H](O[C@@H]2O[C@H](C)C[C@H](N(C)C)[C@H]2O)[C@](C)(O)C[C@@H](C)C(=O)[C@H](C)[C@@H](O)[C@]1(C)O`
-3.9
